Assign Ki to each entry below.
- TESTED_SYSTEM: Casein kinase II subunit alpha (Homo sapiens, UniProt P68400)
- Sequence (P68400 whole entry): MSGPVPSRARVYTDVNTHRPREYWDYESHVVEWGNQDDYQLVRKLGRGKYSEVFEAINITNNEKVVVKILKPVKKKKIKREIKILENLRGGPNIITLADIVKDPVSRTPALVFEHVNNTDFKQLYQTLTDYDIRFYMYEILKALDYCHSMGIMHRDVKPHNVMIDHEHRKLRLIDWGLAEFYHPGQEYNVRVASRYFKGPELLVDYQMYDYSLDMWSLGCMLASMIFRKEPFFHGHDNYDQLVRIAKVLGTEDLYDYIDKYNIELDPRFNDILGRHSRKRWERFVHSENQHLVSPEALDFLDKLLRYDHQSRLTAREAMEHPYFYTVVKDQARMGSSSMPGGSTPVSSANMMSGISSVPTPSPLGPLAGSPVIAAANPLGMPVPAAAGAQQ
- MEASUREMENT_DESCRIPTION: Mixed-type inhibition of recombinant human GST-tagged CK2alpha in presence of ATP by Lineweaver-Burk plot analysis

O=C(O)c1ccc(Nc2nc(-c3ccccc3)cs2)cc1	1100 nM

Now consider a different molecule.
Query string: So what's the measured Ki for this one? O=C(O)c1ccc(Nc2nc(-c3cccc([N+](=O)[O-])c3)cs2)cc1
Result string: 1600 nM
